protocol-details: Lipophilicity, logD of compound by RP-HPLC analysis
Type: physicochemical
quantity-kind: logD

What measured logD goes with `Cc1ccc(NC(=O)C[C@H](CCC(=O)O)c2noc([C@H]3C[C@@H](CC(C)(C)C)C3)c2C2CC2)c(Cl)c1` ? 5.1

And `Cc1ccc(NC(=O)C[C@H](Cc2nc(C(=O)O)cs2)c2noc([C@H]3C[C@@H](CC(C)C)C3)c2C2CC2)c(C)c1` ? 4.2

And `Cc1ccc(NC(=O)C[C@@H](c2noc([C@H]3C[C@@H](CC(C)C)C3)c2C2CC2)C(C)(C)CC(=O)O)c(C)c1` ? 5.2

And `Cc1cc(C)c(NC(=O)C[C@H](CC(=O)O)c2noc([C@H]3C[C@@H](CC(C)C)C3)c2C2CC2)cc1C` ? 4.6

And `Cc1ccc(NC(=O)C[C@H](OCC(=O)O)c2noc([C@H]3C[C@@H](CC(C)C)C3)c2C2CC2)c(C)c1` ? 3.8

And `Cc1cc(C)c(C)c(NC(=O)C[C@H](CC(=O)O)c2noc([C@H]3C[C@@H](CC(C)C)C3)c2C2CC2)c1` ? 4.5

And Cc1ccc(NC(=O)C[C@H](CCC(=O)O)C(=O)N(C[C@H]2C[C@@H](CC(C)(C)C)C2)C2CC2)c(Cl)c1 (mixture of isomers) ? 4.5

And `Cc1ccc(NC(=O)CCc2nnc([C@H]3C[C@@H](CC(C)C)C3)n2C2CC2)c(C)c1` ? 4.4

And `Cc1ccc(NC(=O)C[C@H](CC(=O)O)c2noc([C@H]3C[C@@H](CC(C)C)C3)c2C2CC2)c(C)c1C` ? 4.4

And `Cc1ccc(NC(=O)C[C@H](CC(=O)O)c2noc([C@H]3C[C@@H](CCC(C)C)C3)c2C2CC2)c(C)c1` ? 4.7

And Cc1ccc(NC(=O)CC(Cc2nnn[nH]2)c2nnc([C@H]3C[C@@H](CC(C)C)C3)n2C2CC2)c(C)c1 (mixture of isomers) ? 3.1

And `Cc1ccc(NC(=O)C[C@@H](c2noc([C@H]3C[C@@H](CC(C)C)C3)c2C2CC2)C(C)(C)C(=O)O)c(C)c1` ? 5

And `Cc1cc(C)cc(NC(=O)C[C@H](CC(=O)O)c2noc([C@H]3C[C@@H](CC(C)C)C3)c2C2CC2)c1` ? 4.5

And `C=C(C)c1c([C@@H](CC(=O)O)CC(=O)Nc2ccc(C)cc2C)noc1[C@H]1C[C@@H](CC(C)C)C1` ? 4.3

And `CCc1c([C@@H](CC(=O)O)CC(=O)Nc2ccc(C)cc2C)noc1[C@H]1C[C@@H](CC(C)C)C1` ? 4.2

And `Cc1cc(F)ccc1NC(=O)C[C@H](CC(=O)O)c1noc([C@H]2C[C@@H](CC(C)C)C2)c1C1CC1` ? 3.9

And `CC(C)C[C@H]1C[C@@H](c2onc([C@@H](CC(=O)O)CC(=O)Nc3ccc(F)cc3Cl)c2C2CC2)C1` ? 4.3

And `Cc1ccc(NC(=O)C[C@H](CC(=O)O)c2noc([C@H]3C[C@@H](CC(C)C)C3)c2C2CC2)c(Cl)c1` ? 4.4

And `Cc1ccc(NC(=O)C[C@H](CCC(=O)O)n2nnc([C@H]3C[C@@H](CC(C)(C)C)C3)c2C2CC2)c(Cl)c1` ? 4.3

And `CCC(C)(C)C[C@H]1C[C@@H](c2onc([C@@H](CC(=O)O)CC(=O)Nc3ccc(C)cc3C)c2C2CC2)C1` ? 5

And `Cc1ccc(NC(=O)C[C@H](C[C@H]2C[C@@H](C(=O)O)C2)c2noc([C@H]3C[C@@H](CC(C)C)C3)c2C2CC2)c(C)c1` ? 5.1

And `CC(C)C[C@H]1C[C@@H](c2onc([C@@H](CC(=O)O)CC(=O)Nc3ccc(Cl)cc3F)c2C2CC2)C1` ? 4.4

And `Cc1ccc(C)c(NC(=O)C[C@H](CC(=O)O)c2noc([C@H]3C[C@@H](CC(C)C)C3)c2C2CC2)c1` ? 4.2

And `CCC(CC)C[C@H]1C[C@@H](c2onc([C@@H](CC(=O)O)CC(=O)Nc3ccc(C)cc3C)c2C2CC2)C1` ? 4.9

And `Cc1ccc(NC(=O)C[C@H](CC(=O)O)c2noc([C@H]3C[C@@H](CC(C)C)C3)c2C(C)C)c(C)c1` ? 4.4

And Cc1ccc(NC(=O)C[C@H](CC(=O)O)c2noc([C@H]3C[C@@H](CC(C)(C)C)C3)c2C2CC2)c(C)c1 (mixture of isomers) ? 4.5

And Cc1ccc(NC(=O)CC(c2nnc([C@H]3C[C@@H](CC(C)C)C3)n2C2CC2)C2CNC2)c(C)c1.Cl (mixture of isomers) ? 3.7

And `Cc1ccc(NC(=O)C[C@H](c2nnc([C@H]3C[C@@H](CC(C)C)C3)n2C2CC2)[C@H]2C[C@@H](O)C2)c(C)c1` ? 4.1

And `Cc1ccc(NC(=O)C[C@H](CC(=O)O)c2noc([C@H]3C[C@@H](CC(C)C)C3)c2C2CC2)cc1C` ? 4.5

And Cc1ccc(NC(=O)CC(Cc2ncco2)c2nnc([C@H]3C[C@@H](CC(C)C)C3)n2C2CC2)c(C)c1 (mixture of isomers) ? 4.5

Each recorded value in this set is attributed to ChEMBL document CHEMBL5537159.
